This collection of values is drawn from ChEMBL document CHEMBL3885861.

Each entry below carries its recorded AST.
Species: Rattus norvegicus
Test: Open TG-GATES - Regimen: Single
Format: toxicity, organism-based, Sprague-Dawley
Design: regimen Single, gender Male, age 6 weeks
Settings: in vivo, po, 0 mg/kg, 9 h, tissue Plasma, route gavage, dose level Control
# unit: IU/L | format: bare number

                                   compound  data_value
0                     CC(=O)Oc1ccccc1C(=O)O        64.8
1          CCc1cc(C(N)=S)ccn1 [ETHIONAMIDE]        59.2
2                  Clc1ccccc1CN1CCc2sccc2C1        65.6
3  O=C(O)c1cn(C2CC2)c2cc(N3CCNCC3)c(F)cc2c1=O        68.4
4     COc1ccc(Cc2nccc3cc(OC)c(OC)cc23)cc1OC        69.4
5  CSc1ccc2c(c1)N(CCC1CCCCN1C)c1ccccc1S2 (configuration not stated)        67.4

Shifting focus to the compound that follows.
Exercise: # lookup: AST of `O=C(O)c1cc(/N=N/c2ccc(S(=O)(=O)Nc3ccccn3)cc2)ccc1O`
Key: 63.2

----------
Each entry below carries its recorded TBIL.
Organism: Rattus norvegicus
Assay: Open TG-GATES - Regimen: Daily Repeat
Format: toxicity, organism-based, Sprague-Dawley
Design: regimen Daily Repeat, gender Male, age 6 weeks
Conditions: in vivo, po, 0 mg/kg, […], tissue Plasma, route gavage, dose level Control, time 28 day
# unit: mg/dL | format: bare number

Field: example entries. Status: answers known.
COMPOUND	DATA VALUE
NC(=O)N1c2ccccc2C=Cc2ccccc21 [CARBAMAZEPINE]	0.2
CO[C@H]1/C=C/O[C@@]2(C)Oc3c(C)c(O)c4c(O)c(c(/C=N/N5CCN(C)CC5)c(O)c4c3C2=O)NC(=O)/C(C)=C\C=C\[C@H](C)[C@H](O)[C@@H](C)[C@@H](O)[C@@H](C)[C@H](OC(C)=O)[C@@H]1C	0.3
CCCC(CCC)C(=O)O	0.1
C[C@H](CS)C(=O)N1CCC[C@H]1C(=O)O	0.3

Exercise: # lookup: TBIL of CSc1ccc2c(c1)N(CCC1CCCCN1C)c1ccccc1S2 (centres undefined)
Key: 0.3

Exercise: # lookup: TBIL of `O=C(O)c1cn(C2CC2)c2cc(N3CCNCC3)c(F)cc2c1=O`
Key: 0.3

Exercise: # lookup: TBIL of `O=C(O)c1cc(/N=N/c2ccc(S(=O)(=O)Nc3ccccn3)cc2)ccc1O`
Key: 0.2

Exercise: # lookup: TBIL of `COc1ccc(Cc2nccc3cc(OC)c(OC)cc23)cc1OC`
Key: 0.008

Exercise: # lookup: TBIL of `CN(C)CCC=C1c2ccccc2CCc2ccccc21`
Key: 0.058

----------
Species: Rattus norvegicus
Assay: Open TG-GATES - Regimen: Daily Repeat
Format: toxicity, organism-based, Sprague-Dawley
Parameters: regimen Daily Repeat, gender Male, age 6 weeks
Settings: in vivo, po, 0 mg/kg, […], tissue Plasma, route gavage, dose level Control, time 28 day
EXPERIMENTAL ENDPOINT: PL (mg/dL)
# unit: mg/dL | format: bare number

COMPOUND	DATA VALUE
CO[C@H]1/C=C/O[C@@]2(C)Oc3c(C)c(O)c4c(O)c(c(/C=N/N5CCN(C)CC5)c(O)c4c3C2=O)NC(=O)/C(C)=C\C=C\[C@H](C)[C@H](O)[C@@H](C)[C@@H](O)[C@@H](C)[C@H](OC(C)=O)[C@@H]1C	157.4
COc1ccc(Cc2nccc3cc(OC)c(OC)cc23)cc1OC	147.4
CCCC(CCC)C(=O)O	150.6
O=C(O)c1cc(/N=N/c2ccc(S(=O)(=O)Nc3ccccn3)cc2)ccc1O	148.4
Clc1ccccc1CN1CCc2sccc2C1	133.2

Shifting focus to the compound that follows.
Exercise: # lookup: PL of `NC(=O)N/N=C/c1ccc([N+](=O)[O-])o1`
Key: 139.6

----------
Species on record: Rattus norvegicus
Assay: Open TG-GATES - Regimen: Single
Format: toxicity, organism-based, Sprague-Dawley
Design: regimen Single, gender Male, age 6 weeks
Conditions: in vivo, po, 0 mg/kg, 24 h, tissue Plasma, route gavage, dose level Control
EXPERIMENTAL ENDPOINT: K (meq/L)
# unit: meq/L | format: bare number

>>> df
                                   compound  experimental_endpoint  data_value
0            CN(C)CCC=C1c2ccccc2CCc2ccccc21                      K           4
1  CSc1ccc2c(c1)N(CCC1CCCCN1C)c1ccccc1S2 (stereo not drawn)                      K         5.1
2          C[C@H](CS)C(=O)N1CCC[C@H]1C(=O)O                      K         4.6
3              Cn1c(=O)c2[nH]cnc2n(C)c1=O.O                      K         4.3

Shifting focus to the compound that follows.
Exercise: # lookup: K of `NC(=O)N/N=C/c1ccc([N+](=O)[O-])o1`
Key: 3.7

----------
Each entry below carries its recorded GLC.
Species on record: Rattus norvegicus
Assay: Open TG-GATES - Regimen: Single
Type: toxicity, organism-based, Sprague-Dawley
Parameters: regimen Single, gender Male, age 6 weeks
Settings: in vivo, po, 0 mg/kg, 24 h, tissue Plasma, route gavage, dose level Control
# unit: mg/dL | format: bare number

Field: example entries. Status: answers known.
                                   molecule  measure_unit  data_value
0  CSc1ccc2c(c1)N(CCC1CCCCN1C)c1ccccc1S2 (stereo not drawn)         mg/dL       193.4
1          C[C@H](CS)C(=O)N1CCC[C@H]1C(=O)O         mg/dL       199.8
2              Cn1c(=O)c2[nH]cnc2n(C)c1=O.O         mg/dL       193.4
3                  Clc1ccccc1CN1CCc2sccc2C1         mg/dL       198.2
4         NC(=O)N/N=C/c1ccc([N+](=O)[O-])o1         mg/dL       177.6
5                     CC(=O)Oc1ccccc1C(=O)O         mg/dL       204.2
6  COc1cc2c(c3oc(=O)c4c(c13)CCC4=O)[C@@H]1C=CO[C@@H]1O2         mg/dL       189.4

Exercise: # lookup: GLC of NC(=O)N1c2ccccc2C=Cc2ccccc21 [CARBAMAZEPINE]
Key: 207

----------
Organism: Rattus norvegicus
Test: Open TG-GATES - Regimen: Single
Type: toxicity, organism-based, Sprague-Dawley
Set-up: regimen Single, gender Male, age 6 weeks
Details: in vivo, po, 1000 mg/kg, 24 h, tissue Plasma, route gavage, dose level High
EXPERIMENTAL ENDPOINT: TP (g/dL)
# unit: g/dL | format: bare number

                                   compound  data_value
0  O=C(O)c1cc(/N=N/c2ccc(S(=O)(=O)Nc3ccccn3)cc2)ccc1O         5.7
1          CCc1cc(C(N)=S)ccn1 [ETHIONAMIDE]         5.3
2                  Clc1ccccc1CN1CCc2sccc2C1         5.7
3  O=C(O)c1cn(C2CC2)c2cc(N3CCNCC3)c(F)cc2c1=O           6

Shifting focus to the compound that follows.
Exercise: # lookup: TP of `C[C@H](CS)C(=O)N1CCC[C@H]1C(=O)O`
Key: 5.7

----------
Each entry below carries its recorded GLC.
Species on record: Rattus norvegicus
Assay: Open TG-GATES - Regimen: Single
Format: toxicity, organism-based, Sprague-Dawley
Parameters: regimen Single, gender Male, age 6 weeks
Conditions: in vivo, po, 0 mg/kg, 6 h, tissue Plasma, route gavage, dose level Control
# unit: mg/dL | format: bare number

Field: example entries. Status: answers known.
                                   compound  measure_unit  data_value
0          CCc1cc(C(N)=S)ccn1 [ETHIONAMIDE]         mg/dL       187.6
1  CN(C)CCC=C1c2ccccc2CCc2ccccc21 [AMITRIPTYLINE]         mg/dL       173.6
2  NC(=O)N/N=C/c1ccc([N+](=O)[O-])o1 [NITROFURAZONE]         mg/dL       169.8
3  NC(=O)N1c2ccccc2C=Cc2ccccc21 [CARBAMAZEPINE]         mg/dL       196.8
4  C[C@H](CS)C(=O)N1CCC[C@H]1C(=O)O [CAPTOPRIL]         mg/dL       198.2

Exercise: # lookup: GLC of Clc1ccccc1CN1CCc2sccc2C1 [TICLOPIDINE]
Key: 183.2

Exercise: # lookup: GLC of COc1ccc(Cc2nccc3cc(OC)c(OC)cc23)cc1OC [PAPAVERINE]
Key: 180.6

Exercise: # lookup: GLC of O=C(O)c1cc(/N=N/c2ccc(S(=O)(=O)Nc3ccccn3)cc2)ccc1O [SULFASALAZINE]
Key: 189.2
